Values from the supplement of paper PMC10567573

B1: PDLIM4 (parent)
chain: FLDERLYCESHAKARVKPPEGYDV

- Variants of: B1
- Test Description: protein stability index of a GFP-peptide fusion (GPS, HEK-293T) (PSI 1-6); higher = more stable;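 also: lentivirally expressed fusions sorted by FACS into six bins by GFP to DsRed ratio, PSI derived from sequencing read proportions per bin multiplied by bin number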
- Applied Conditions: c terminus: a fixed tail appended
Quantity Kind: protein stability index
Please state the value as a number alone, without comment.

Ask: Could you tell me which protein stability index is on file for FLDERLYCESHAKALVKPPEGYDV [R15L] ?
Result: 2.41

Ask: Given the entry FLDEREYCESHAKARVKPPEGYDV [L6E] , report its measured protein stability index.
Result: 3.09

Ask: Param item = FLDERLYCESHAKARVKMPEGYDV [P18M] ; retrieve measured protein stability index.
Result: 1.1

Ask: Form field: reported protein stability index of FLDERLYGESHAKARVKPPEGYDV [C8G]
Result: 3.41

Ask: Field request: protein stability index | item: FLDERLYCESHIKARVKPPEGYDV [A12I]
Result: 1.6

Ask: Give its protein stability index value. Item: FLDERLYCESHAKARVKPPEGADV [Y22A]
Result: 1.32

Ask: Report protein stability index for FLDERLYCEWHAKARVKPPEGYDV [S10W] please.
Result: 3.67

Ask: Which protein stability index value is on record for FLDERLYCESHAKARVKPPQGYDV [E20Q] ?
Result: 3.09

Ask: Recorded protein stability index of FLDERLYCESHAKARVKPPEGYDW [V24W] , please.
Result: 1.91

Ask: Would you mind telling me what protein stability index value was observed for FLDERLYCESTAKARVKPPEGYDV [H11T] ?
Result: 1.99

Ask: # query: protein stability index of entry FLDERLYCESHAKARVKPPEGMDV [Y22M]
Result: 1.37
